Cited source for all entries: patent US20260070922A1

# Measured target: Orexin type 1 (OX1R) receptor (Homo sapiens, UniProt O43613)
# Construct: expressed in transfected cells; host or cells: CHO cells (G418 selection)
# Experiment notes: In vitro orexin antagonism assay: intracellular calcium measurement (FLIPR), orexin-A 3 nM as agonist
# Type: cell-based
# Experimental conditions: second value of IC50/Kb cell
Dear colleague, classification is by Kb, with ranges listed here: low value (below 0.004 µM), medium value (0.004 µM to below 0.03 µM), high value (0.03 µM or more)

O=C(c1nn2c(c1-c1ccccn1)COCC2)N1CCC[C@H]1Cn1cc(-c2ccc(F)cn2)cn1 = medium value

query: # bin label for O=C(c1c(-c2ccccc2)nc2ccccn12)N1CCCC[C@H]1COc1ccc(C(F)(F)F)cn1
result: low value

query: Each compound maps to one class by Kb. Which class for O=C(c1c(-c2ccccc2)nc2cc(C(F)(F)F)ccn12)N1CCC[C@H]1Cn1cc(-c2ccccc2)cn1 ?
result: high value

query: # bin label for C[C@@]1(COc2cnc(C(F)(F)F)cn2)CCCN1C(=O)c1nc2ccccn2c1-c1ccccc1
result: high value

query: Would you mind sorting C[C@@]1(COc2ccc(C(F)(F)F)cn2)CCCN1C(=O)c1nc2ccccn2c1-c1ccccc1 into the appropriate category?
result: high value

query: Lab note: sort C[C@@]1(COc2ccc(C(F)(F)F)cn2)CCCN1C(=O)c1c(-c2ncccn2)nn2ccccc12 into the matching Kb band.
result: medium value

query: Lab log: C[C@@]1(COc2ccc(C(F)(F)F)cn2)CCCN1C(=O)c1c(-c2ccccc2)nn2cccnc12 — assign Kb category
result: medium value

query: For this compound, which bin applies? O=C(c1c(-c2ccccc2F)nc2ccccn12)N1CCC[C@H]1COc1ccc(C(F)(F)F)cn1
result: medium value

###

# Measured target: Orexin type 1 (OX1R) receptor (Homo sapiens)
# Sequence (O43613 1-425): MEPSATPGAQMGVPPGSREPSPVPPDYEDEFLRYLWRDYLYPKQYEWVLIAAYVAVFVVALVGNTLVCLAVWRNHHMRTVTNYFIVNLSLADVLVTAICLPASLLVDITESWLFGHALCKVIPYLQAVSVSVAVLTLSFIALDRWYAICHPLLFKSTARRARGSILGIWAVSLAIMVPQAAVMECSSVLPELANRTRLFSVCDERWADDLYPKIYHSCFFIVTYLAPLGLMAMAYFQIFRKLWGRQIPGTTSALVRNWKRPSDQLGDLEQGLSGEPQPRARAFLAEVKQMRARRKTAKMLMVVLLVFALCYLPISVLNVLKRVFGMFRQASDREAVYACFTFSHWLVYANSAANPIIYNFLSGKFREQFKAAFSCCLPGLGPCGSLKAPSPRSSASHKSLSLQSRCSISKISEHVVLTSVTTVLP
# Experiment notes: In vitro orexin antagonism assay: intracellular calcium measurement (FLIPR), orexin-A 3 nM as agonist
# Experimental conditions: first value of IC50/Kb cell
Listing of entries alongside the reported pIC50.
Keep in mind that pIC50 stands for -log10 of concentration in molar terms.

O=C(c1c(-c2ccccc2F)nn2ccccc12)N1CCC[C@H]1Cn1ccc(-c2ccc(F)cn2)n1 [Example 90] = 8.22

Given item O=C(c1nn2cccnc2c1-c1ccccn1)N1CCC[C@H]1Cn1ccc(-c2ccccn2)n1 [Example 185] , the value recorded as its pIC50 is 7.80

Given item O=C(c1nc2n(c1-c1ccccn1)CCOC2)N1CCC[C@H]1Cn1cc(-c2ccccn2)cn1 [Example 217] , the value recorded as its pIC50 is 6.68

Entry O=C(c1nc2ccccn2c1-c1ccccn1)N1CCC[C@H]1Cc1nc(-c2ccc(F)cn2)no1 [Example 210] — recorded pIC50 = 6.72

Item: C[C@@H]1CCCN(C(=O)c2c(-c3ccccc3)nc3ncccn23)[C@@H]1CNc1ccc(C(F)(F)F)cn1 [Example 34] | pIC50: 7.28

Notebook: O=C(c1nn2c(c1-c1ccccn1)COCC2)N1CCC[C@H]1Cn1cc(-c2ccc(F)cn2)cn1 [Example 198] , pIC50 read as 6.85

###

# Measured target: Orexin type 1 (OX1R) receptor (Homo sapiens)
# Construct: expressed in transfected cells; host or cells: CHO cells (G418 selection)
# Sequence (O43613 1-425): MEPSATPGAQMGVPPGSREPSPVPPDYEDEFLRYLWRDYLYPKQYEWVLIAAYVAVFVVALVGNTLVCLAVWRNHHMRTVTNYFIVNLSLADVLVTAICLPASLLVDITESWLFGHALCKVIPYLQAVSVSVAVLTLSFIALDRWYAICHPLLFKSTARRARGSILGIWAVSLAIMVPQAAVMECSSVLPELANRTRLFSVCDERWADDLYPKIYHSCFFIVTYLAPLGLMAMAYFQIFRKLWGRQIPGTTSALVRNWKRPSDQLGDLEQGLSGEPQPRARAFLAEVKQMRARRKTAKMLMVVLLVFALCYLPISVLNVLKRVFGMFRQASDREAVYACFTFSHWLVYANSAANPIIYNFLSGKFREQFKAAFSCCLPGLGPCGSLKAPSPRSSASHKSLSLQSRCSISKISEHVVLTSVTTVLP
# Experiment notes: In vitro orexin antagonism assay: intracellular calcium measurement (FLIPR), orexin-A 3 nM as agonist
# Type: cell-based
# Experimental conditions: second value of IC50/Kb cell
Readout type: Kb (nM)
// units = nM; emit number, no label

Some entries whose results are on file:
O=C(c1nn2c(c1-c1ccccn1)OCCC2)N1CCC[C@H]1Cn1ccc(-c2ccccn2)n1 = 3
O=C(c1nn2cccnc2c1-c1ccccc1)N1CCC[C@H]1Cn1ccc(-c2ccccc2)n1 = 1
O=C(c1c(-c2ccc(F)cc2)nn2ccccc12)N1CCC[C@H]1CNc1ccc(C(F)(F)F)cn1 = 3

# next molecule below
// O=C(c1c(-c2ccc(F)cc2)nc2ccccn12)N1CCC[C@H]1Cn1ccc(-c2ccc(F)cc2)n1 : Kb value = 6

###

# Measured target: Orexin type 1 (OX1R) receptor (Homo sapiens)
# Construct: expressed in transfected cells; host or cells: CHO cells (G418 selection)
# Experiment notes: In vitro orexin antagonism assay: intracellular calcium measurement (FLIPR), orexin-A 3 nM as agonist
# Assay type: cell-based
# Experimental conditions: read-out: OX1R, % Inh. @ 1 uM
Readout type: inhibition at 1 µM (%)
Hi! Could you send only the number? It should be in %, unit omitted.

O=C(c1nn2cccnc2c1-c1ccccc1)N1CCC[C@H]1Cn1ccc(-c2ccccn2)n1 = 99
O=C(c1c(-c2ccccc2)nc2cc(C(F)(F)F)ccn12)N1CCC[C@H]1Cn1cc(-c2ccccn2)cn1 = 43
O=C(c1c(-c2ncccn2)nn2ccccc12)N1CCC[C@H]1Cn1ccc(-c2ccccc2)n1 = 100
O=C(c1c(-c2ccccc2)nc2ccccn12)N1[C@@H]2CC[C@@H](C2)[C@H]1COc1ccc(C(F)(F)F)cn1 = 98
O=C(c1c(-c2ccccn2)nn2ccccc12)N1CCC[C@H]1Cn1cc(-c2ccc(F)cn2)cn1 = 67
O=C(c1c(-c2ccccc2)nn2c1COCC2)N1[C@@H]2CC[C@@H](C2)[C@H]1COc1ccc(C(F)(F)F)cn1 = 78

Recorded inhibition at 1 µM (molecule O=C(c1nn2c(c1-c1ccccc1)COCC2)N1[C@@H]2CC[C@@H](C2)[C@H]1COc1ccc(C(F)(F)F)cn1 ): 58

Reported inhibition at 1 µM ( C[C@@]1(COc2cnc(C(F)(F)F)cn2)CCCN1C(=O)c1c(-c2ccccn2)nn2ccccc12 ) = 84

Measured inhibition at 1 µM of O=C(c1c(-c2ccccc2F)nn2ccccc12)N1CC[C@H]1Cn1ccc(-c2ccc(F)cn2)n1 : 24

###

# Measured target: Orexin type 1 (OX1R) receptor (Homo sapiens, UniProt O43613)
# Construct: expressed in transfected cells; host or cells: CHO cells (G418 selection)
# Experiment notes: In vitro orexin antagonism assay: intracellular calcium measurement (FLIPR), orexin-A 3 nM as agonist
# Type: cell-based
# Experimental conditions: read-out: OX1R, % Inh. @ 1 uM
Items are presented alongside their recorded inhibition at 1 µM.

O=C(c1nn2c(c1-c1ccccc1)OCCC2)N1CCC[C@H]1COc1ccc(C(F)(F)F)cn1 = 100%
O=C(c1nc2ccccn2c1-c1ccccc1)N1CCC[C@H]1Cn1ccc(-c2ccccn2)n1 = 100%
O=C(c1nn2ccccc2c1-c1ccccc1)N1CCC[C@H]1COc1ccc(C(F)(F)F)cn1 = 98.4%
O=C(c1c(-c2ccccc2F)nc2ccccn12)N1CCC[C@H]1COc1ccc(C(F)(F)F)cn1 = 64%
O=C(c1nn2c(c1-c1ccccc1)OCCC2)N1CCC[C@H]1Cn1ccc(-c2ccccn2)n1 = 100%

Summary: O=C(c1nn2cccnc2c1-c1ccccn1)N1CCC[C@H]1Cn1ccc(-c2ccc(F)cn2)n1 , Orexin type 1 (OX1R) receptor (Homo sapiens, UniProt O43613), inhibition at 1 µM = 91%

###

# Measured target: human orexin-2 receptor (OX2R) (Homo sapiens)
# Construct: expressed in transfected cells; host or cells: CHO cells (G418 selection)
# Sequence (O43614 1-444): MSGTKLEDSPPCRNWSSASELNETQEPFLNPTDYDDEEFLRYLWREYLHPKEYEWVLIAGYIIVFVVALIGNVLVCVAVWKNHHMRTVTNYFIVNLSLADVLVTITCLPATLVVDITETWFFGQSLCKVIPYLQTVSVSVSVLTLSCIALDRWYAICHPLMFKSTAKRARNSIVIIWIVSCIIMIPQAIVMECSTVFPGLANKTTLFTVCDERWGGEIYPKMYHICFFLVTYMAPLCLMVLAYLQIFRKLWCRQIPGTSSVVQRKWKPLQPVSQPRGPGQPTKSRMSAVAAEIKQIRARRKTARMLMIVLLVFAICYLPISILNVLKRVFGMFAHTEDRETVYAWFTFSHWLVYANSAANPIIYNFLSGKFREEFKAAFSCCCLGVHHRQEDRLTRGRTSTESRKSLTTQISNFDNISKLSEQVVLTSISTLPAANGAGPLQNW
# Experiment notes: In vitro orexin antagonism assay: intracellular calcium measurement (FLIPR), orexin-A 3 nM as agonist
# Assay type: cell-based
# Experimental conditions: read-out: OX2R, % Inh. @ 1 uM
Readout type: inhibition at 1 µM (%)
// return numeric value only (unit: %, not printed)

Summary line: O=C(c1nn2ccccc2c1-c1ccccn1)N1CCC[C@H]1Cc1nc(-c2ccc(F)cn2)no1 , human orexin-2 receptor (OX2R) (Homo sapiens), reported inhibition at 1 µM = 40

// compound O=C(c1nn2ccccc2c1-c1ccccn1)N1CCC[C@H]1COc1ccc(C(F)(F)F)cn1 , assay human orexin-2 receptor (OX2R) (Homo sapiens), inhibition at 1 µM value: 40

Known value: human orexin-2 receptor (OX2R) (Homo sapiens) inhibition at 1 µM of the compound O=C(c1c(-c2ccccc2F)nn2c1COCC2)N1CCC[C@H]1Cn1cc(-c2ccccc2)cn1 equals 45

O=C(c1c(-c2ccccc2)nc2cc(C(F)(F)F)ccn12)N1[C@H](Cn2ccc(-c3ccc(F)cn3)n2)C[C@@H]2C[C@@H]21 on human orexin-2 receptor (OX2R) (Homo sapiens) gives inhibition at 1 µM = 42
